Biological target: human TLR8 (Homo sapiens)
Assay: TLR8 inhibition reporter assay (HEK-Blue SEAP)
Conditions: HEK-Blue cells overexpressing human TLR8, stimulated with R848 15.9 μM, 22 hour incubation
pIC50: −log10 of the molar value.
Measure: pIC50

Cc1cc(-c2[nH]c3ccc(OC4CCN(CCCC(F)(F)F)CC4)cc3c2C(C)C)cn(C)c1=O [Example 78]	8.96

I. CNC(=O)CN1CCC(Oc2ccc3[nH]c(-c4cc(C)c(=O)n(C)c4)c(C(C)C)c3c2)CC1 [Example 112]
II. Cc1cc(-c2[nH]c3ccc(OC4CCN(C)CC4)cc3c2C(C)C)ccn1 [Example 179]
III. COc1ccc(-c2[nH]c3ccc(OCC(=O)N4CCC[C@]5(CCCC[C@@H]5N)C4)cc3c2C(C)C)cc1OC [Example 123]
Q: rank_up(items): orders items by reported pIC50 in ascending numerical order. I'd appreciate it if you listed the labels in the requested order.
Ans: III, I, II
(III: 6.64, I: 8.05, II: 8.60)

###

Target: UniProt:Q9NR97
Sequence (Q9NR97 27-1041): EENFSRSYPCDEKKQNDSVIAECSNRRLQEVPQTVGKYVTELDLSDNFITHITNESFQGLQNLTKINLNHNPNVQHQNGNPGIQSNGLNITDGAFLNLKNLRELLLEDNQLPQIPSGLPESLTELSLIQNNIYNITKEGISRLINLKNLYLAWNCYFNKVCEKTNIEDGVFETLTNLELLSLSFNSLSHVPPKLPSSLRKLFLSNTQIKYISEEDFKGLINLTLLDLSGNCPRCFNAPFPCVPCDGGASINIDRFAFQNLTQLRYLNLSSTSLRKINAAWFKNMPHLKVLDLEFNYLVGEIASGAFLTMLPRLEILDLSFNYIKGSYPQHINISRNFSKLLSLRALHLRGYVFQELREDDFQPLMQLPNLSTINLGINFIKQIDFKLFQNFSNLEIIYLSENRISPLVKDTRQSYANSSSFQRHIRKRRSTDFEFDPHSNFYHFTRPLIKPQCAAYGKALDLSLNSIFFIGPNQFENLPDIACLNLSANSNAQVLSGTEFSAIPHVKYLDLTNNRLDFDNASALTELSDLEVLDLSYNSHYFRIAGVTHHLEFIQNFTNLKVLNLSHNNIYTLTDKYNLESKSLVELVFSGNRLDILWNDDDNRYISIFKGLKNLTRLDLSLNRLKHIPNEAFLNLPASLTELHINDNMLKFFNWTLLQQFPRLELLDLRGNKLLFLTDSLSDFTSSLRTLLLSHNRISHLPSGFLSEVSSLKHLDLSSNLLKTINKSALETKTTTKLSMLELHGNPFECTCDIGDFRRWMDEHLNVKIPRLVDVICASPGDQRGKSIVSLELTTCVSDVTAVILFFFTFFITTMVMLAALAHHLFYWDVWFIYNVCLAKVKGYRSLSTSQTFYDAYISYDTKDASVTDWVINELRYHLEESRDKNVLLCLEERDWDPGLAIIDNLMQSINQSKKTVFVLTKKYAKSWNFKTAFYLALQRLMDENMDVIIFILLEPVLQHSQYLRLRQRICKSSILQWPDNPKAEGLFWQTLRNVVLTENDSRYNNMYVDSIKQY
Experiment: TLR8 inhibition reporter assay (HEK-Blue SEAP)
Conditions: HEK-Blue cells overexpressing human TLR8, stimulated with R848 15.9 μM, 22 hour incubation
Measure: IC50 (nM)

Worked cases, IC50 given:
Cc1cc(-c2[nH]c3ccc(OCC(=O)NC4CCC5CNCC54)cc3c2C(C)C)ccn1 (centres unmarked)	78.4
COc1ccc(-c2[nH]c3ccc(OCCC4CCNCC4)cc3c2C(C)C)cc1OC	27.6
Cc1cc(-c2[nH]c3ccc(OCC4CCNCC4)cc3c2C(C)C)cn(C)c1=O	2.6
Cc1c(-c2[nH]c3ccc(OC4CCN(CC(=O)N(C)C)CC4)cc3c2C(C)C)cn(C)c(=O)c1C	5.8
CNC(=O)CN1CCC(COc2ccc3[nH]c(-c4cc(C)nc(C)c4)c(C(C)C)c3c2)CC1	7.3

a. Cc1cc(-c2[nH]c3ccc(OCC4CCCN(C)C4)cc3c2C(C)C)ccn1 (centres unmarked)
b. CCCN1CCC(Oc2ccc3[nH]c(-c4cc(OC)c5ncnn5c4)c(C(C)C)c3c2)CC1
c. COc1ccc(-c2[nH]c3ccc(OCC(=O)NCC4(O)CCN(C)CC4)cc3c2C(C)C)cc1OC
Q: rank_up(items): orders items by reported IC50 in ascending numerical order. I'd appreciate it if you listed the labels in the requested order.
Ans: b, a, c

1. Cc1c(-c2[nH]c3ccc(OCC4CCN(C(C)C)CC4)cc3c2C(C)C)cn2cnnc2c1C
2. COc1ccc(-c2[nH]c3ccc(OCC(=O)N4CCCC(CCN)C4)cc3c2C(C)C)cc1OC (centres unmarked)
Q: Between the two listed entries 1 and 2 , which has its IC50 at the higher number? Lab log: write the label of the selected item as the result.
Ans: 2

P. Cc1cc(-c2[nH]c3ccc(OCC(=O)NCCC(C)(C)O)cc3c2C(C)C)ccn1
Q. Cc1cc(-c2[nH]c3ccc(OC4CCN(C(=O)CN(C)C)CC4)cc3c2C(C)C)ccn1
R. Cc1cc(-c2[nH]c3ccc(OCc4cccnc4)cc3c2C(C)C)ccn1
Q: Rank descending by IC50. I'd appreciate it if you listed the labels in the requested order.
Ans: P, R, Q
(P: 731 nM, R: 181 nM, Q: 11.8 nM)

P. COc1ccc(-c2[nH]c3ccc(OCC(=O)NCC4CCCCN4)cc3c2C(C)C)cc1OC (centres unmarked)
Q. Cc1cc(-c2[nH]c3ccc(OC4CCN(CCCO)CC4)cc3c2C(C)C)cc(C)n1
Q: Between the two listed entries P and Q , which has its IC50 at the higher number? Lab log: write the label of the selected item as the result.
Ans: P
(P: 12.8 nM, Q: 1.3 nM)

P. COc1cc(-c2[nH]c3ccc(OC4CCN(C)CC4)cc3c2C(C)C)cn2ncnc12
Q. Cc1cc(-c2[nH]c3ccc(OCCN4CCOCC4)cc3c2C(C)C)ccn1
Q: Select one. Lower IC50: P or Q Lab log: write the label of the selected item as the result.
Ans: P

###

Molecular target: human TLR7 (Homo sapiens)
Sequence (Q9NYK1 27-1049): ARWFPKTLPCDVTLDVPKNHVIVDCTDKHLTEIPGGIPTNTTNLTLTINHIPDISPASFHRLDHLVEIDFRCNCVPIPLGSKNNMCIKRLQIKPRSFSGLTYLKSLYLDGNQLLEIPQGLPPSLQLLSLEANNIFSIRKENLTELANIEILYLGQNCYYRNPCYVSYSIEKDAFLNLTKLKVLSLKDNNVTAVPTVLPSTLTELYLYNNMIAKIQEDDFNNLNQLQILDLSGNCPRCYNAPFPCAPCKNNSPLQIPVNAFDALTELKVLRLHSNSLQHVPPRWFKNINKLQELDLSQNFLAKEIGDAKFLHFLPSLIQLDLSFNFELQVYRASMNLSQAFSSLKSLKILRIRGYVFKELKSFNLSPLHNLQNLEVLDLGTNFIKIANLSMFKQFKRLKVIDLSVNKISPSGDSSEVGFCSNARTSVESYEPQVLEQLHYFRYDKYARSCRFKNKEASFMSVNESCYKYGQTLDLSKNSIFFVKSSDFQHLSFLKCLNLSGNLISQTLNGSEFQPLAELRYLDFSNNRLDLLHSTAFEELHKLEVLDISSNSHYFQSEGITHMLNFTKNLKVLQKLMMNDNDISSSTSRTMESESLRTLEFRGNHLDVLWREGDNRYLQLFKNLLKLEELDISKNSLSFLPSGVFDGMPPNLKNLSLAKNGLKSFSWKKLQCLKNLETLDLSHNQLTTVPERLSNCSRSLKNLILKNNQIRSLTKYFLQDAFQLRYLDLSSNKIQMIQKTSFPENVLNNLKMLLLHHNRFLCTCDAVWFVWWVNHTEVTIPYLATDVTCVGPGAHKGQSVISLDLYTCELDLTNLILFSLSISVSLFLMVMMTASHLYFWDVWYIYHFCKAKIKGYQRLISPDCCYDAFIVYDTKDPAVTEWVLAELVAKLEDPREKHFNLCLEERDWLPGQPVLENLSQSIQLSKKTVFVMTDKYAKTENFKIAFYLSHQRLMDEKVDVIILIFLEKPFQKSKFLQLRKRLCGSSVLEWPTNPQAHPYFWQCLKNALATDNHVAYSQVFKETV
Assay: TLR7 inhibition reporter assay (HEK-Blue SEAP)
Conditions: HEK-Blue cells overexpressing human TLR7, stimulated with gardiquimod 7.5 μM, 22 hour incubation
Text: TLR7/8/9 Inhibition Reporter Assays HEK-Blue™-cells (Invivogen) overexpressing human TLR7, TLR8 or TLR9 receptors were used for screening inhibitors of these receptors using an inducible SEAP (secreted embryonic alkaline phosphatase) reporter gene under the control of the IFN-β minimal promoter fused to five NF-κB and AP-1-binding sites. […]
Measure: IC50 (nM)

Worked cases, IC50 given:
COc1ccc(-c2[nH]c3ccc(OCC(=O)NC4CCN(C(C)C)CC4)cc3c2C(C)C)cc1OC [Example 139]	623
Cc1c(-c2[nH]c3ccc(OCC4CCN(C5COC5)CC4)cc3c2C(C)C)cn2cnnc2c1C [Example 52]	6.1
Cc1cc(-c2[nH]c3ccc(OC4CCN(C(=O)CN(C)C)CC4)cc3c2C(C)C)ccn1 [Example 196]	9.9
COc1ccc(-c2[nH]c3ccc(OCC(=O)NCCN)cc3c2C(C)C)cc1OC [Example 117]	120

P. Cc1cc(-c2[nH]c3ccc(OC4CCN(C)CC4)cc3c2C(C)C)ccn1 [Example 179]
Q. Cc1cc(-c2[nH]c3ccc(OC4CCN(CC(=O)O)CC4)cc3c2C(C)C)cc(C)n1 [Example 197]
Q: Between the two listed entries P and Q , which has its IC50 at the higher number? Lab log: write the label of the selected item as the result.
Ans: Q
(Q: 679 nM, P: 39.7 nM)

1. Cc1c(-c2[nH]c3ccc(OCC4CCN(C)CC4)cc3c2C(C)C)cn2cnnc2c1C [Example 54]
2. Cc1cc(-c2[nH]c3ccc(OCc4cccnc4)cc3c2C(C)C)ccn1 [Example 169]
Q: Between the two listed entries 1 and 2 , which has its IC50 at the higher number? Lab log: write the label of the selected item as the result.
Ans: 2

###

Target: human TLR7 (Homo sapiens)
Assay: TLR7 inhibition reporter assay (HEK-Blue SEAP)
Conditions: HEK-Blue cells overexpressing human TLR7, stimulated with gardiquimod 7.5 μM, 22 hour incubation
Excerpt: TLR7/8/9 Inhibition Reporter Assays HEK-Blue™-cells (Invivogen) overexpressing human TLR7, TLR8 or TLR9 receptors were used for screening inhibitors of these receptors using an inducible SEAP (secreted embryonic alkaline phosphatase) reporter gene under the control of the IFN-β minimal promoter fused to five NF-κB and AP-1-binding sites. […]
Measure: IC50 (nM)

Cc1cc(-c2[nH]c3ccc(OCc4ccccc4)cc3c2C(C)C)ccn1 [Example 165]	5920

1. Cc1cc(-c2[nH]c3ccc(OC4CCN(C)CC4)cc3c2C(C)C)cn2ncnc12 [Example 32]
2. Cc1cc(-c2[nH]c3ccc(OCC4CCN(CC(=O)N(C)C)CC4)cc3c2C(C)C)cn(C)c1=O [Example 81]
Q: Between the two listed entries 1 and 2 , which has its IC50 at the higher number? Lab log: write the label of the selected item as the result.
Ans: 2
(2: 26.1 nM, 1: 0.9 nM)

1. Cc1c(-c2[nH]c3ccc(OC4CCN(C)CC4)cc3c2C(C)C)cn(C)c(=O)c1Cl [Example 46]
2. COCCN1CCC(COc2ccc3[nH]c(-c4cc(C)c(=O)n(C)c4)c(C(C)C)c3c2)CC1 [Example 74]
Q: Between the two listed entries 1 and 2 , which has its IC50 at the higher number? Lab log: write the label of the selected item as the result.
Ans: 2
(2: 20.7 nM, 1: 5.6 nM)

A. Cc1cc(-c2[nH]c3ccc(O[C@@H]4CCNC4)cc3c2C(C)C)ccn1 [Example 157]
B. Cc1cc(-c2[nH]c3ccc(OCC4CCN(C)CC4)cc3c2C(C)C)cn2ncnc12 [Example 41]
Q: Between the two listed entries A and B , which has its IC50 at the higher number? Lab log: write the label of the selected item as the result.
Ans: A

Every entry's value here was drawn from patent US12030878B2.
